Recorded pIC50 values for a group of compounds are listed next.
EXPERIMENTAL SYSTEM: Human indoleamine 2,3-dioxygenase (IDO) (Homo sapiens (Human), UniProt P14902)
Sequence (P14902 whole entry): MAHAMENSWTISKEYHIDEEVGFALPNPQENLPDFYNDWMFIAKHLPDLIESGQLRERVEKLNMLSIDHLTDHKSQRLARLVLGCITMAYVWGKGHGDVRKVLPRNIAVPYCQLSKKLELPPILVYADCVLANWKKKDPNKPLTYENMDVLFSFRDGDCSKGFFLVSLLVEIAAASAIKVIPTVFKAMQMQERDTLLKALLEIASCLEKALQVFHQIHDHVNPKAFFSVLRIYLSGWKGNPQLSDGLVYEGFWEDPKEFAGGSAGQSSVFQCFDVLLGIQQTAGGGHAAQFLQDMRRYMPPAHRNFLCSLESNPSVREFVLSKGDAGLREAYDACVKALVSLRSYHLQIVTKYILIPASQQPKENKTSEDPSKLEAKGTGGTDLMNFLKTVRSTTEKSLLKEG
ASSAY PROTOCOL: Human Indoleamine 2,3-Dioxygenase (IDO) Enzyme Assay
Type: biochemical
ASSAY CONTEXT: Table 3; assay of Example A; 95 nM IDO, 2 mM D-Trp, pH 6.5, room temperature
pIC50: −log10 of the molar value.

• NS(=O)(=O)NCCNc1nonc1C(=NO)NCc1cc(Br)co1 = > 6.30

Shifting focus to the compound that follows.
Q. # return recorded pIC50 for entry NS(=O)(=O)NCCNc1nonc1C(=NO)NCc1cc(Cl)co1
A. > 6.12

* * *

EXPERIMENTAL SYSTEM: Human indoleamine 2,3-dioxygenase (IDO) (Homo sapiens (Human), UniProt P14902)
ASSAY PROTOCOL: Human Indoleamine 2,3-Dioxygenase (IDO) Enzyme Assay
Type: biochemical
ASSAY CONTEXT: Table 2; assay of Example A; 95 nM IDO, 2 mM D-Trp, pH 6.5, room temperature
METRIC NAME: IC50

Here are 5 compounds together with their reported answers.
- CS(=O)(=O)NCCCNc1nonc1C(=NO)Nc1ccc(F)c(Cl)c1 [Example 8]: < 200 nM
- NS(=O)(=O)NCCCNc1nonc1C(=NO)Nc1ccc(F)c(C(F)(F)F)c1 [Example 11]: < 100 nM
- Cc1cc(NC(=NO)c2nonc2NCCNS(C)(=O)=O)ccc1F [Example 17]: < 500 nM
- CS(=O)(=O)NCCCNc1nonc1C(=NO)Nc1ccc(F)c(Br)c1 [Example 4]: < 100 nM
- CS(=O)(=O)NCCNc1nonc1C(=NO)Nc1ccc(F)c(C(F)(F)F)c1 [Example 10]: < 100 nM

Q. # return recorded IC50 for entry NS(=O)(=O)NCCNc1nonc1C(=NO)Nc1ccc(F)c(C(F)(F)F)c1 [Example 9]
A. < 100 nM

Q. # return recorded IC50 for entry CS(=O)(=O)NCCCNc1nonc1C(=NO)Nc1ccc(F)c(C(F)(F)F)c1 [Example 12]
A. < 100 nM

* * *

EXPERIMENTAL SYSTEM: Human indoleamine 2,3-dioxygenase (IDO) (Homo sapiens (Human))
ASSAY PROTOCOL: Human Indoleamine 2,3-Dioxygenase (IDO) Enzyme Assay
Format: biochemical
ASSAY CONTEXT: Table 2; assay of Example A; 95 nM IDO, 2 mM D-Trp, pH 6.5, room temperature
pIC50: −log10 of the molar value.
Recorded pIC50 values for a group of compounds are listed next.

Here are 3 compounds together with their reported answers.
• CS(=O)(=O)NCCNc1nonc1C(=NO)Nc1ccc(F)c(Cl)c1 [Example 6] = > 6.70
• NS(=O)(=O)NCCCNc1nonc1C(=NO)Nc1cccc(C(F)(F)F)c1 [Example 15] = > 6.70
• CS(=O)(=O)NCCNc1nonc1C(=NO)Nc1cccc(C(F)(F)F)c1 [Example 14] = > 6.70

Q. # return recorded pIC50 for entry N#Cc1cc(NC(=NO)c2nonc2NCCNS(N)(=O)=O)ccc1F [Example 18]
A. > 6.12

Q. # return recorded pIC50 for entry NS(=O)(=O)NCCNc1nonc1C(=NO)Nc1ccc(F)c(Cl)c1 [Example 5]
A. > 6.70

* * *

EXPERIMENTAL SYSTEM: UniProt:P14902
ASSAY PROTOCOL: Human Indoleamine 2,3-Dioxygenase (IDO) Enzyme Assay
Format: biochemical
ASSAY CONTEXT: Table 2; assay of Example A; 95 nM IDO, 2 mM D-Trp, pH 6.5, room temperature
METRIC NAME: IC50

* CS(=O)(=O)NCCCNc1nonc1C(=NO)Nc1cccc(C(F)(F)F)c1 [Example 16] | < 0.2 µM
* NS(=O)(=O)NCCCNc1nonc1C(=NO)Nc1ccc(F)c(Cl)c1 [Example 7] | < 0.2 µM

Q. Provide IC50, system UniProt:P14902, entry NS(=O)(=O)NCCNc1nonc1C(=NO)Nc1cccc(C(F)(F)F)c1 [Example 13]
A. < 0.5 µM

Q. Provide IC50, system UniProt:P14902, entry CS(=O)(=O)NCCNc1nonc1C(=NO)Nc1ccc(F)c(C#N)c1 [Example 19]
A. < 0.5 µM

Q. Provide IC50, system UniProt:P14902, entry NS(=O)(=O)NCCCNc1nonc1C(=NO)Nc1ccc(F)c(Br)c1 [Example 3]
A. < 0.1 µM
